Each recorded value in this set is attributed to paper PMC7820887.

subject_of_test: T1, soluble extracellular domain of human IL-5 receptor alpha subunit (sIL-5Rα) (human, UniProt Q01344)
T1 construct: human IL-5 receptor alpha subunit (IL-5Rα, CD125), extracellular domain, residues 21–333; subcloned from a cDNA of residues 1–420; Expressed from the pSecTag2A vector; migrates at ~50 kDa (glycosylated); A biotinylated form (BirA) was used only for library screening; also called sIL-5α; CD125; source: HEK293F, transiently transfected, purified (Ni-NTA); not shown: Avi, C-terminal, kept; His6, …
test_name: BLI; Octet QKe, 30°C, 1× kinetics buffer in PBS pH 7.4; Ab immobilised on anti-human IgG Fc capture (AHC) biosensors, sIL-5Rα as analyte; association 300 s, dissociation 600 s; 1:1 binding model
condition_set: both partners purified
Examples of binders with documented kon follow.
measured_metric: kon (M⁻¹ s⁻¹)

• 5R65.7 (antibody, V domains shown, as the VH of m6 (5R65) with mutations in VH-CDR3 (Kabat residues 95–100d were randomised); no mutations in VL-CDR3; Human IgG1, kappa; selected as scFab by yeast display from the 5R65 CDR3 library under kinetic screening; also called 5R65.7 Ab; source: HEK293F, purified (Protein A)) VH: QVQLVQSGAEVKKPGSSVKVSCKASGYTFTSYWINWVRQAPGQGLEWIGHIYPNKNENYYNHKFKDKATLTVDKSTNTAYMELSSLRSEDTAVYYCTREFYGRQYYQAMDYWGQGTTLTVSS VL: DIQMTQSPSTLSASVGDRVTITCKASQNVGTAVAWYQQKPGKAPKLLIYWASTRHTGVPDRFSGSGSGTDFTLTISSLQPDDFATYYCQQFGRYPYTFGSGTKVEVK = 31700
• 5R65.18 (antibody, V domains shown, as the VH of m6 (5R65) with mutations in VH-CDR3 (Kabat residues 95–100d were randomised); no mutations in VL-CDR3; Human IgG1, kappa; selected as scFab by yeast display from the 5R65 CDR3 library under kinetic screening; source: HEK293F, purified (Protein A)) VH: QVQLVQSGAEVKKPGSSVKVSCKASGYTFTSYWINWVRQAPGQGLEWIGHIYPNKNENYYNHKFKDKATLTVDKSTNTAYMELSSLRSEDTAVYYCTREYYGRTYYSAMDYWGQGTTLTVSS VL: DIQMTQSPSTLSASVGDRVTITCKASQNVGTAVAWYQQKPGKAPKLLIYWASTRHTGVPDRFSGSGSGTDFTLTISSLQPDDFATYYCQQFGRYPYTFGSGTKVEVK = 22400
• 5R65.45 (antibody, V domains shown, as the VH of m6 (5R65) with mutations in VH-CDR3 (Kabat residues 95–100d were randomised); no mutations in VL-CDR3; Human IgG1, kappa; selected as scFab by yeast display from the 5R65 CDR3 library under kinetic screening; source: HEK293F, purified (Protein A)) VH: QVQLVQSGAEVKKPGSSVKVSCKASGYTFTSYWINWVRQAPGQGLEWIGHIYPNKNENYYNHKFKDKATLTVDKSTNTAYMELSSLRSEDTAVYYCTREYYGRSYYNAMDYWGQGTTLTVSS VL: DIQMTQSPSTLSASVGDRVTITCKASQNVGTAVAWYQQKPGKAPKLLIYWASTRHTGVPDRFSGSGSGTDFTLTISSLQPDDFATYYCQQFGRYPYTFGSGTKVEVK = 24900
• 5R68 (antibody, V domains shown, Human IgG1, kappa; selected as scFab by yeast display from the hu2B7 VH-CDR2 library; source: HEK293F, purified (Protein A)) VH: QVQLVQSGAEVKKPGSSVKVSCKASGYTFTSYWINWVRQAPGQGLEWIGHIYPTATIAVYNDKFKDKATLTVDKSTNTAYMELSSLRSEDTAVYYCTRDYYGRSYYYAMDYWGQGTTLTVSS VL: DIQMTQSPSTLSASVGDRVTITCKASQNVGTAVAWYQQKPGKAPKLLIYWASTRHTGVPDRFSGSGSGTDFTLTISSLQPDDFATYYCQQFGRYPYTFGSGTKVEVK = 23500
